System: PC-3 prostate
Assay: NCI tumour cell line growth inhibition, 48 h
Readout: TGI (µM)
Give a bare numeral; the unit µM is implied.

Task item: Can you share its TGI? I mean this compound: CC(=O)O[C@H]1[C@H](OC(=O)CC(C)(O)CC(=O)O)C[C@]2(C)C3=C(CCC2C1(C)C)[C@]1(C)CC[C@H]([C@H]2CC[C@H](C(C)(C)O)OC2O)[C@@]1(C)[C@@H](O)C3 (stereo not given in full)
Reply: 33.2

Task item: # TGI lookup, item `CC(C)(C)c1cc(O)ccc1O`
Reply: 5.3

Task item: Item under review: `O=C1C(c2c(O)[nH]c3ccc(Br)cc23)=Nc2ccccc21` . Reported TGI?
Reply: 17.8

Task item: Can you share its TGI? I mean this compound: `CC(C)NC(=O)CN1CCN(c2c(O)c3c(c(O)c2Cl)C(=O)C=CC3=O)CC1`
Reply: 4.75
